System: A549 cells
Experiment: CCK-8 growth inhibition of A549 lung cancer cells
Type: cell-based
Conditions: Homo sapiens, read-out: IC50 against tumor cells, A549
Experimental: Lung cancer cells A549 were separated into a 96-well plate and respectively added with 10 mM TZ47 stock solution to final concentrations of 0 μM, 0.1 μM, 0.5 μM, 1 μM, 2 μM, 4 μM and 8 μM in respective wells. Then the 96-well plate was incubated at 37° C. for 48 h and the growth of the cells was analyzed by a CCK-8 method. […]
Assay Metric: IC50

Task: Dear colleague, I am looking for the recorded IC50 of the following compound: c1ccc2c(Cc3[nH]c4ccccc4c3Cc3c[nH]c4ccccc34)c[nH]c2c1 [TZ47]
Result: 730 nM

Cited source for all entries: patent US11840525B2
